From: PubChem BioAssay AID1159580

- Measurement notes: chemical genetic growth profiling, strain panel (AID 1159580);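 note: tested at 20 µM; growth read once vehicle control cultures reached saturation at 30 °C; 1 = growth at the plate median or of vehicle wells; lower values mean less growth of the strain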
- Condition: S. cerevisiae deletion strains, growth OD, locus YER002W, strain NOP16, stronger effect = lower value
Among all 5,500 compounds or so, about 2,000 (36%) were called active. Roughly 18% stayed inconclusive and do not appear here. Some of the results follow.
Assignment: determine reported normalized growth for the given compounds.

Task item: Given the entry `CCCCCCCCC(=O)NCc1ccc(O)c(OC)c1` , report its measured normalized growth.
Reply: 0.986 (inactive)

Task item: Ok, now `CCN(CC)CCOC(=O)c1cc(Cl)c(N)cc1OC`
Reply: 1.02 (inactive)

Task item: Ok, now NC(Cc1ccc(N(CCCl)CCCl)cc1)C(=O)O (stereo not given)
Reply: 0.974 (inactive)

Task item: Ok, now CCCCCCCCCCCCCCCC(=O)NCC(COP(=O)([O-])OCC[N+](C)(C)C)OCC (stereo not given)
Reply: 0.0938 (active)

Task item: Ok, now CN1CC[C@@]2(C)c3cc(O)ccc3N(C)C12 (stereo not given in full)
Reply: 0.998 (inactive)

Task item: Ok, now C=CC1(C)CC(=O)C2(O)C(C)(O1)C(OC(C)=O)C(O)C1C(C)(C)CCC(O)C12C (stereo not given)
Reply: 0.986 (inactive)

Task item: Ok, now `NCCC(=O)NCCc1cnc[nH]1`
Reply: 0.993 (inactive)

Task item: Ok, now COc1cc(C(O)CO)ccc1O (stereo not given)
Reply: 0.988 (inactive)

Task item: Ok, now `O=C(/C=C/c1ccc(O)c(O)c1)OCCc1ccccc1`
Reply: 0.896 (active)

Task item: Ok, now `NCCc1cnc[nH]1`
Reply: 0.994 (inactive)

###

- Measurement notes: chemical genetic growth profiling, strain panel (AID 1159580);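 note: tested at 20 µM; growth read once vehicle control cultures reached saturation at 30 °C; 1 = growth at the plate median or of vehicle wells; lower values mean less growth of the strain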
- Condition: S. cerevisiae deletion strains, growth OD, locus YNL153C, strain GIM3, stronger effect = lower value
The whole screen tested about 5,500 compounds, of which about 2,000 (36%) were called active. Inconclusive results (about 18%) are left out. The list shows a part of the results.
Parameter: normalized growth

Task item: Given the entry `CSc1nc(N)n(-c2ccccc2)n1` , report its measured normalized growth.
Reply: 1 (inactive)

Task item: Ok, now `COC(=O)CCCCCCCC(=O)Nc1ccc(Cl)cc1`
Reply: 0.997 (inactive)

Task item: Ok, now `O=C1C(Cl)=C(Cl)C(=O)C(Cl)=C1Cl`
Reply: 0.814 (active)

Task item: Ok, now `Cc1nc(N)ncc1Sc1ccccc1`
Reply: 0.961 (inactive)

Task item: Ok, now NC(Cc1ccc(N(CCCl)CCCl)cc1)C(=O)O (stereo not drawn)
Reply: 1.04 (inactive)

Task item: Ok, now `CNCC[C@@H](Oc1ccc(C(F)(F)F)cc1)c1ccccc1`
Reply: 1.01 (inactive)

Task item: Ok, now `Cc1ccc(-c2csc(CC#N)n2)cc1C`
Reply: 0.929 (inactive)

Task item: Ok, now C/C=C(\C)C(=O)O[C@H]1C[C@@H](OC(C)=O)[C@@]2(C(=O)OC)CO[C@@H]3C2[C@]12CO[C@](O)(C(=O)OC)[C@H]2[C@](C)(C12O[C@@]1(C)[C@H]1C[C@@H]2OC2OC=C[C@@]21O)[C@@H]3O (stereo partly drawn)
Reply: 0.988 (inactive)

Task item: Ok, now CN1CC[C@@]2(C)c3cc(O)ccc3N(C)C12 (stereo partly drawn)
Reply: 0.941 (inactive)

Task item: Ok, now `Cc1nn(C)c(C)c1[N+](=O)[O-]`
Reply: 1 (inactive)

Task item: Ok, now O=C(CC1NCCN(Cc2ccccc2)C1=O)Nc1ccc(Cl)cc1 (stereo not drawn)
Reply: 0.981 (inactive)

Task item: Ok, now `C[N+](C)(C)CCC(=O)c1cccc2ccccc12`
Reply: 0.104 (active)

Task item: Ok, now `O=C(O)CSCc1ccccc1`
Reply: 0.997 (inactive)

Task item: Ok, now CN(C)CCCC1(c2ccc(F)cc2)OCc2cc(C#N)ccc21 (stereo not drawn)
Reply: 0.997 (inactive)

Task item: Ok, now `O=[N+]([O-])c1ccc(N2CCCCC2)nc1N1CCCCC1`
Reply: 0.909 (active)

Task item: Ok, now `CCC[C@H](N[C@@H](C)C(=O)N1[C@H](C(=O)O)C[C@@H]2CCCC[C@@H]21)C(=O)OCC`
Reply: 1 (inactive)

Task item: Ok, now `CNCC[C@H](Oc1ccc(C(F)(F)F)cc1)c1ccccc1`
Reply: 0.886 (inactive)

Task item: Ok, now `S=C1NCN(CCN2CCCC2)CN1`
Reply: 0.993 (inactive)

Task item: Ok, now `O=C(O)c1cc2cc(F)ccc2[nH]1`
Reply: 1.01 (inactive)

Task item: Ok, now OC(CN1CCN(c2cccc(Cl)c2)CC1)C(c1ccccc1)c1ccccc1 (stereo not drawn)
Reply: 0.992 (inactive)

Task item: Ok, now `Clc1cccc(N2CCNCC2)c1`
Reply: 0.985 (inactive)

Task item: Ok, now CC(=O)O[C@H]1C[C@@H](OC(C)=O)C(C)(C)C2CC(=O)[C@]3(C)C(CC[C@@]4(C)[C@H](C(=O)O)OC(=O)C5OC543)[C@]21C (stereo partly drawn)
Reply: 1.02 (inactive)

Task item: Ok, now N#CCCN(CC1CCCO1)C(=S)Nc1cc(C(F)(F)F)cc(C(F)(F)F)c1 (stereo not drawn)
Reply: 1 (inactive)

Task item: Ok, now COC(=O)C1C(O)CCC2CN3CCc4c([nH]c5ccccc45)C3CC21 (stereo not drawn)
Reply: 0.981 (inactive)

Task item: Ok, now `CCN(CC)CCOC(=O)c1cc(Cl)c(N)cc1OC`
Reply: 1 (inactive)

Task item: Ok, now OCC(O)CN1CCN(c2ccccc2)CC1 (stereo not drawn)
Reply: 0.988 (inactive)

Task item: Ok, now `O=C(O)/C=C/c1ccc(O)c(O)c1`
Reply: 0.999 (inactive)

Task item: Ok, now `NCCc1cnc[nH]1`
Reply: 0.778 (active)

Task item: Ok, now COC(=O)C[C@H]1C2(C)CC34OC5(C)O[C@@]6([C@H](OC(C)=O)C(OC(C)=O)[C@]7(C)C(/C(=C(/O)C(C)C)C(=O)O[C@H]7c7ccoc7)[C@@]6(O5)[C@H](OC(C)=O)[C@@]3(O)C2OC(=O)C(C)C)[C@]14C (stereo partly drawn)
Reply: 1.02 (inactive)

Task item: Ok, now `O=C(O)[C@@H]1CCN1`
Reply: 0.996 (inactive)

Task item: Ok, now `N=C(N)SCCc1cnc[nH]1`
Reply: 0.972 (inactive)

Task item: Ok, now `O=C(c1c(F)cccc1F)N1CCN(C(=O)c2c(F)cccc2F)CC1`
Reply: 1.02 (inactive)

Task item: Ok, now `Clc1ccc(C(c2ccc(Cl)cc2)C(Cl)(Cl)Cl)cc1`
Reply: 1.02 (inactive)

###

- Measurement notes: chemical genetic growth profiling, strain panel (AID 1159580);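 note: tested at 20 µM; growth read once vehicle control cultures reached saturation at 30 °C; 1 = growth at the plate median or of vehicle wells; lower values mean less growth of the strain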
- Condition: S. cerevisiae deletion strains, growth OD, locus YKL085W, strain MDH1 (second series), stronger effect = lower value
Screen size: about 5,500 compounds; about 2,000 (36%) were called active. Another 18% or so got no clear call; they are omitted. This is one part of the list.
Parameter: normalized growth
Please respond with just the number, no unit label.

Task item: Given the entry `COc1ccc(-c2coc3cc(O)ccc3c2=O)c(OC)c1` , report its measured normalized growth.
Reply: 0.996

Task item: Ok, now Cc1ccccc1C(OCCN(C)C)c1ccccc1 (centres undefined)
Reply: 1

Task item: Ok, now `NS(=O)(=O)c1cc2c(cc1Cl)NC=NS2(=O)=O`
Reply: 0.998

Task item: Ok, now `COc1ccc(C(=O)CC(=O)O)c2c1C=CC(C)(C)O2`
Reply: 1

###

- Measurement notes: chemical genetic growth profiling, strain panel (AID 1159580);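 note: tested at 20 µM; growth read once vehicle control cultures reached saturation at 30 °C; 1 = growth at the plate median or of vehicle wells; lower values mean less growth of the strain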
- Condition: S. cerevisiae deletion strains, growth OD, locus YOR231W, strain MKK1, stronger effect = lower value
About 2,000 (36%) of roughly 5,500 compounds were called active. Not shown: some 18% with an inconclusive outcome. This is one part of the list.
Parameter: normalized growth
Please respond with just the number, no unit label.

Task item: Given the entry O=C1CCC(N2C(=O)c3ccccc3C2=O)C(=O)N1 (configuration not stated) , report its measured normalized growth.
Reply: 0.976

Task item: Ok, now `Cc1ccc(S(=O)(=O)NC(=O)Nc2ccc(Sc3ccccc3)nc2Sc2ccccc2)cc1`
Reply: 0.976

Task item: Ok, now `COc1ccc(C(=O)CC(=O)O)c2c1C=CC(C)(C)O2`
Reply: 0.994

Task item: Ok, now CC1CCc2cc(F)cc3c(=O)c(C(=O)O)cn1c23 (configuration not stated)
Reply: 0.982

Task item: Ok, now CO/N=C1/CN(c2nc3c(cc2F)c(=O)c(C(=O)O)cn3C2CC2)CC1CN (configuration not stated)
Reply: 0.989

Task item: Ok, now `CCCCNC(=O)NS(=O)(=O)c1ccc(C)cc1`
Reply: 0.983

Task item: Ok, now `O=C(c1ccc(OCCN2CCCCC2)cc1)c1c(-c2ccc(O)cc2)sc2cc(O)ccc12`
Reply: 0.995
